# MEASUREMENT_DESCRIPTION: Inhibition of Bak/Bcl-xL (unknown origin) protein protein interaction by fluorescence polarization assay
# Design: species or system Homo sapiens
TEST_READOUT: pIC50
pIC50 (log units): -log10 of the concentration in mol/L.

Task: Query pIC50 for `CC(C)Oc1cc(C(=O)Nc2ccc(C(=O)Nc3ccc(C(=O)O)cc3OC(C)C)nc2OC(C)C)ccc1N`
Output: 6.40

###

# SYSTEM_UNDER_TEST: Bcl-xL/BAK (Homo sapiens)
# Sequence (Q16611 whole entry, one chain of several, further chain): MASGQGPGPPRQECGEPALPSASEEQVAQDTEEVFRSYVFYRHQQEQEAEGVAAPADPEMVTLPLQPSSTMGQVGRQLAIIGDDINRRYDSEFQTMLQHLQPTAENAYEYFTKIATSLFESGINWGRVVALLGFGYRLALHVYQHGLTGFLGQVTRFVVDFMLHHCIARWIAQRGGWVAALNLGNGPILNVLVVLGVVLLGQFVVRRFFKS
# MEASUREMENT_DESCRIPTION: Binding affinity to human Bcl-xL/Bak (unkown origin) incubated for 1 hr by fluorescence polarization assay
# Type: protein assay
TEST_READOUT: pKi
pKi (log units): -log10 of the concentration in mol/L.

Task: Query pKi for `CC1=C[C@@H](/C=C(\C)c2ccc(C(=O)O)cc2)[C@]2(C(=O)O)C=C[C@@H](CCOC(=O)c3ccc(Oc4ccccc4)cc3)C[C@@H]2C1`
Output: 6.15

###

# MEASUREMENT_DESCRIPTION: Binding affinity to Mcl-1 H224A (unknown origin) assessed as dissociation constant by SPR analysis
# Parameters: species or system Homo sapiens
TEST_READOUT: pKd
pKd (log units): -log10 of the concentration in mol/L.

Study these solved cases before continuing.
In [3]: df
Out[3]:
                                   molecule  experimental_result
0  O=C1CCC(N2C(=O)c3cccc4c(Sc5ccc(Br)cc5)ccc(c34)C2=O)C(=O)N1 (stereo not drawn)                 6.89
1  O=C(COc1ccc2ccccc2c1)NCCN1C(=O)c2cccc3c(Sc4ccc(Br)cc4)ccc(c23)C1=O                 5.95

Shifting focus to the molecule that follows.
Task: Query pKd for `N#CC1=C(C#N)c2ccc(Sc3ccc(Br)cc3)c3cccc(c23)C1=O`
Output: 6.39

###

# SYSTEM_UNDER_TEST: BCL2/BAD (Homo sapiens)
# Sequence (Q92934 whole entry): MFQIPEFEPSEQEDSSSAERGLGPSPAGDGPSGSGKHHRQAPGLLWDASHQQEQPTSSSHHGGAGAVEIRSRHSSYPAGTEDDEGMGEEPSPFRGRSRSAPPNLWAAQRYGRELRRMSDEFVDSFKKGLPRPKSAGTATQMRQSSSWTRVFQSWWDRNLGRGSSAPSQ
# Sequence (P10415 whole entry): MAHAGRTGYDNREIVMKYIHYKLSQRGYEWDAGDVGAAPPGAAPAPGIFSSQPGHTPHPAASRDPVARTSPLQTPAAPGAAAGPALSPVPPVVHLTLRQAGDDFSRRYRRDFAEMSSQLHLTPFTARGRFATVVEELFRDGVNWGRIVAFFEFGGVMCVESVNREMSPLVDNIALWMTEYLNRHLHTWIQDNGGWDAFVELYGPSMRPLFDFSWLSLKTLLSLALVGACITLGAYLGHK
TEST_READOUT: pKi
pKi (log units): -log10 of the concentration in mol/L.

Task: Write down measured pKi (BCL2/BAD (Homo sapiens)) for this compound. O=C(O[C@@H]1Cc2c(O)cc(O)cc2O[C@@H]1c1cc(O)c(O)c(O)c1)c1cc(O)c(O)c(O)c1 [EPIGALOCATECHIN GALLATE]
Output: 6.31

###

# SYSTEM_UNDER_TEST: Bcl-xL/Bcl-2-like protein 11 (Homo sapiens, UniProt Q07817)
# Sequence (Q07817 whole entry): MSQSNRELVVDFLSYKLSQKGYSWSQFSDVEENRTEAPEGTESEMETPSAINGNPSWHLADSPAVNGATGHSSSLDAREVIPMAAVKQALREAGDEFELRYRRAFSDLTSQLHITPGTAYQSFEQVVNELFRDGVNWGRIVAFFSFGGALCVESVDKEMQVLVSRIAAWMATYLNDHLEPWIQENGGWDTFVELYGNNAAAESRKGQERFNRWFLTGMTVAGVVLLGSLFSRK
# Sequence (O43521 whole entry, further chain): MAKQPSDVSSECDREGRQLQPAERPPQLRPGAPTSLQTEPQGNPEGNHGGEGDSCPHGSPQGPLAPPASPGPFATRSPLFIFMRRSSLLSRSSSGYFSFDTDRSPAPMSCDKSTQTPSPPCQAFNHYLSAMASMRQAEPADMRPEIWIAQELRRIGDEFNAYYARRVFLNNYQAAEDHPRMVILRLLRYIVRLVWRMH
# MEASUREMENT_DESCRIPTION: Inhibition of GST-tagged Bcl-xL/Bim (unknown origin) incubated for 15 mins followed by Bim addition measured after 2 hrs by ELISA method
# Assay type: protein assay
TEST_READOUT: pIC50
pIC50 (log units): -log10 of the concentration in mol/L.

>>> print(df.to_string())
                            compound_string                         system_under_test  test_readout  experimental_result
0  CCOC(=O)CSc1ccc(C(=O)c2[nH]c(Cl)c(Cl)c2-n2cc(Cl)c(Cl)c2C(=O)c2ccc(SCC(=O)OCC)cc2O)c(O)c1  Bcl-xL/Bcl-2-like protein 11 (Homo sapiens, UniProt Q07817)         pIC50                 5.92

Task: Query pIC50 for `COc1ccc(CSc2ccc(C(=O)c3[nH]c(Cl)c(Cl)c3-n3cc(Cl)c(Cl)c3C(=O)c3ccc(SCc4ccc(OC)cc4)cc3O)c(O)c2)cc1`
Output: 6.22

Task: Query pIC50 for `O=C(c1ccc(SCc2ccccc2)cc1O)c1[nH]c(Cl)c(Cl)c1-n1cc(Cl)c(Cl)c1C(=O)c1ccc(SCc2ccccc2)cc1O`
Output: 6.22
